Data origin: patent US10344019B2

- System: HCV 2a JFH-1 Rluc cells (dicistronic genotype 2a JFH-1 replicon, RLuc reporter)
- protocol_description: microbe, parasite or virus in culture
- Assay type: cell-based
- condition_info: Hepatitis C virus, genotype 2a JFH-1 RLuc replicon; read-out: 2a JFH
pEC50: −log10 of the molar value.
Kindly state pEC50 for each of the entries shown.

Query: Could you tell me which pEC50 is on file for `COC[C@H]1C[C@@H](c2ncc(-c3ccc4c(c3)COc3cc5c(ccc6nc([C@@H]7CCCN7C(=O)[C@H](NC(=O)OC)c7ccccc7)[nH]c65)cc3-4)[nH]2)N(C(=O)[C@@H](NC(=O)OC)C(C)C)C1` ?
Response: 9.00 to 12.00

Query: Param item: `COC[C@H]1C[C@@H](c2nc3ccc4cc(-c5ccc6c(ccc7nc([C@@H]8C[C@H]9C[C@H]9N8C(=O)[C@H](NC(=O)OC)c8ccccc8)[nH]c76)c5)ccc4c3[nH]2)N(C(=O)[C@@H](NC(=O)OC)C(C)C)C1`
Response: 9.00 to 12.00
